- Test system: SW-620 colon
- ASSAY PROCEDURE: NCI tumour cell line growth inhibition, 48 h
ATTRIBUTE MEASURED: TGI

1. O=C1Cc2cc(CCn3ccnc3)c(Cl)cc2N1 = > 100 µM
2. COc1ccc2c(c1)/C(=C(\C(Cl)=C(\Cl)N1CCCCC1)[N+](=O)[O-])N2 = > 100 µM
3. CCOC(=O)C1=C(Nc2ccccc2)OC/C1=N\NC(=O)Cc1ccccc1 = > 50 µM
4. c1ccc(Cc2cccc3cc(-c4ccc(-c5ccccc5)cc4)[nH]c23)cc1 = > 100 µM
5. CCN(CC)CCn1ncc2ccc3c(c(=O)c4cccnc4n3CCN(CC)CC)c21 = > 6.66 µM
6. COc1ccc(CN2c3ccccc3Sc3ccccc32)cc1F = > 100 µM

---

Here the recorded TGI is given for each entry.
- Tested on: NCI-H226 lung
- ASSAY PROCEDURE: NCI tumour cell line growth inhibition, 48 h
ATTRIBUTE MEASURED: TGI

1. CC1=C(C(=O)Nc2cccc(C(F)(F)F)c2)C(c2ccc(O)cc2)C(C(=O)Nc2cccc(C(F)(F)F)c2)=C(C)N1 = 44.3 µM
2. COc1cc2c(cc1OCCCCNC(=O)c1cc3ccccc3[nH]1)N=CC1CCCN1C2=O (stereo not drawn) = > 100 µM
3. NS(=O)(=O)c1nnc(NC(=O)CCC(=O)O)s1 = > 100 µM

---

- Test system: SK-MEL-2 melanoma
- ASSAY PROCEDURE: NCI tumour cell line growth inhibition, 48 h
ATTRIBUTE MEASURED: TGI

1. COc1c(OC(C)=O)cc2c(OC(C)=O)c1CC(C)CC(OC)C(O)C(C)/C=C(\C)C(OC(N)=O)C(OC)/C=C\C=C(/C)C(=O)N2 (stereo not given) = > 100 µM
2. CCN(CC)CC(O)c1ccc2ccc3ccccc3c2c1 (stereo not given) = 30.9 µM
3. C=C1CC(OC(C)=O)/C=C(/C)CCC(C(C)(C)O)CC1O (stereo not given) = > 100 µM
4. CC1=NN(c2nc(N)nc(CS(C)(=O)=O)n2)C(C)(C)C1 = > 100 µM
5. O=C(N=Nc1ccc([N+](=O)[O-])cc1)NNc1ccc([N+](=O)[O-])cc1 = 28.9 µM
6. O=C(O)CC(NC(=O)C(F)(F)F)C(=O)NC1Cc2ccccc2OC1=O (stereo not given) = > 100 µM
7. CC(=O)Nc1ccc2nncnc2c1 = > 100 µM
8. O=C(CC(=O)N1N=C(n2ccc3ccccc32)CC1c1ccccc1)Nc1cccc(Cl)c1 (stereo not given) = > 100 µM
9. C/C(=N/O)C1CC=C(S(=O)(=O)c2ccccc2)C1 (stereo not given) = > 100 µM
10. O=C(N[C@H](c1ccc(Cl)c(Cl)c1)C1CNC1)c1ccc2cnccc2c1 = 22.4 µM
11. CS(C)(=O)=N/C=C\C(=O)C(Cl)(Cl)Cl = > 100 µM
12. O=C1CCc2c3c(c4c([nH]c5ccccc54)c2CC1)C(=O)NC3=O = 17.1 µM
13. COc1cc(CNC(=O)/C=C/C=C/c2ccc3c(c2)OCO3)ccc1OCc1cn(-c2ccc(Cl)c(Cl)c2)nn1 = 3.86 µM
14. CCN(CC)CCn1ncc2ccc3c(c(=O)c4cccnc4n3CCN(CC)CC)c21 = 3.51 µM
15. CN(C)CCNC(=O)c1cccc2nc3ccc4ccccc4c3nc12 = 0.335 µM
16. C=CCCCCOC1C=CC(OC(C)=O)C(COC(C)=O)O1 (stereo not given) = > 100 µM
17. CCN1CCN(CCOc2ccc(CNc3ccc4nc(CCC5CCCCC5)[nH]c4c3)cc2)CC1 = 3.77 µM
18. COc1ccc2c(=O)c([Se]c3coc4cc(OC)ccc4c3=O)coc2c1 = > 100 µM
19. C=C1c2nc3ccccc3n2C=C(c2ccc(Cl)cc2)N1c1ccc(OCCN2CCOCC2)cc1 = 29.1 µM
20. COC(=O)[C@]12CC[C@@H](C)[C@H](C)[C@@H]1C1=CC[C@@H]3[C@@]4(C)C[C@@H](OC(=O)c5ccco5)[C@H](O)[C@@](C)(CO)[C@@H]4[C@H](O)C[C@@]3(C)[C@]1(C)CC2 = 4.31 µM
21. C=CCN1C(=O)/C(=c2\sc3n(c2=O)C2C(NN=3)N(CC)C(=O)N2CC)c2ccccc21 (stereo not given) = > 38.7 µM
22. CSC1=N/C(=C\c2cccs2)C(=O)N1CN1CCOCC1 = > 100 µM
23. CC(=O)OC1(C#N)CC2OC1C1C2N1C(=O)c1ccccc1 (stereo not given) = > 100 µM
24. COC(=O)C12CCC(C(=O)OC)(Cc3c(c4ccccc4n3S(=O)(=O)c3ccccc3)C1)C2=O (stereo not given) = > 100 µM
25. CCCCc1ccc(Nc2nc3c(ncn3C3OC(COC(C)=O)C(OC(C)=O)C3OC(C)=O)c(=O)[nH]2)cc1 (stereo not given) = 31 µM
26. OC(c1ccccc1)(c1ccccc1)c1ccccn1 = > 100 µM
27. Nc1nnc2nc(CC(=O)/C=C/c3ccccc3)c(=O)[nH]n12 = > 100 µM
28. CCN1CCC[C@H]1c1cc(O)c2c(c1OC)C[C@H]1C[C@H]3[C@H](N)C(=O)C(C(N)=O)=C(O)[C@@]3(O)C(=O)C1=C2O = 0.158 µM
29. CC(C)c1cc(C(C)C)c(S(=O)(=O)NN)c(C(C)C)c1 = > 100 µM
30. COC(=O)CCC(NC(=S)N/N=C(\C)c1ccccn1)C(=O)OC (stereo not given) = > 100 µM

---

- Test system: RXF 393 renal
- ASSAY PROCEDURE: NCI tumour cell line growth inhibition, 48 h
ATTRIBUTE MEASURED: log10(TGI) (log10 of the value in µM)

1) O=C1C2=C(C(=O)c3c(O)ccc(O)c31)N(c1ccc(N3CCOCC3)nc1)Cc1ccccc1O2 = -0.51
2) C/C(Cl)=N\OC(=O)Nc1ccc([N+](=O)[O-])cc1 = 1.48
3) CCN1CCN(CCOc2ccc(CNc3ccc4nc(CCC5CCCCC5)[nH]c4c3)cc2)CC1 = 0.52
4) CCOP(=O)(CCP(=O)(OCC)OCC)OCC.C[CH2][Sn]([Cl])([Cl])[CH2]C = 1.48
5) CCCCc1ccc(Nc2nc3c(ncn3C3OC(COC(C)=O)C(OC(C)=O)C3OC(C)=O)c(=O)[nH]2)cc1 (stereo unspecified) = 1.62
6) C=C1C(=O)OC2/C=C(\C)CC/C=C(/C)CC(OC(=O)/C(=C/CO)CO)C12 (stereo unspecified) = 1.37
7) CCOC(=O)c1ccc(N=C2SC(=S)N(c3ccc(F)cc3)C2=Nc2ccc(C(=O)OCC)cc2)cc1 = 1.37

---

- Tested on: SK-MEL-28 melanoma
- ASSAY PROCEDURE: NCI tumour cell line growth inhibition, 48 h
ATTRIBUTE MEASURED: TGI

1. COc1ccc(C2CCc3nc4nc(N)nc(N)c4cc3C2)cc1 (configuration not stated) = 65 µM
2. CCCCCCc1nn2c(-c3ccc(C)cc3)nnc2s1 = > 100 µM
3. CC(=O)Nc1ccc2nncnc2c1 = > 100 µM
4. O=C(Oc1cccnc1)c1ccccc1Nc1ccnc(C(F)(F)F)c1 = > 60.1 µM
5. CCCNc1nc(N(C)O)nc(N(C)O)n1 = > 91 µM
6. O=S(=O)(NCCNc1nccc(-c2c(-c3cccc(O)c3)nc3sccn23)n1)c1ccc(F)cc1 = 24 µM
7. COC(=O)/C(C#N)=C\N1CCN(C(=O)c2ccco2)C1=S = 79.6 µM
8. COc1ccc2c(c1)C(=O)c1c-2n(CCCN=[N+]=[N-])c(=O)c2ccccc12 = > 100 µM
9. O=C1Cc2cc(CCn3ccnc3)c(Cl)cc2N1 = > 100 µM
10. OC(c1ccccc1)(c1ccccc1)c1ccccn1 = > 100 µM
11. CN(c1c(Cl)cccc1Cl)S(=O)(=O)c1ccccc1[N+](=O)[O-] = > 100 µM
12. CCCCC1Cc2cc(O)ccc2-c2n1c1cc(O)ccc1[n+]2C (configuration not stated) (tested in a mixture with another compound) = 74.3 µM
13. CC(/C=C/c1ncccc1OCCCCCC(=O)O)=N\NC1=NCCN1 = > 100 µM
14. Nc1nc(-c2ccccc2)c(-c2ccccc2)c(-c2nc(N)nc(-c3ccccc3)c2-c2ccccc2)n1 = > 100 µM
15. CC(=O)OC1C=CC2CCN3C(=O)c4cc5c(cc4[C@H]1C23)OCO5 (some centres not stated) = > 100 µM
16. CC(=O)OC1(C#N)CC2OC1C1C2N1C(=O)c1ccccc1 (configuration not stated) = > 100 µM
17. NS(=O)(=O)c1ccc(NNC(=O)c2cccc3c(=O)c4ccccc4[nH]c23)cc1 = > 100 µM
18. Clc1ccc(-c2nc3c(-c4ccc(Cl)cc4)nc(-c4ccccc4)cn3c2-c2ccc(Cl)cc2)cc1 = > 50 µM
19. Cc1cccc2c1Oc1cc(Cl)ccc1C2NC(=O)CCN1CCCCC1 (configuration not stated) = 29.2 µM
20. O=C(O)CC(NC(=O)C(F)(F)F)C(=O)NC1Cc2ccccc2OC1=O (configuration not stated) = > 100 µM
21. O=C(c1cc2ccccc2[nH]1)C(O)(c1cc2ccccc2[nH]1)c1cc2ccccc2[nH]1 = > 246 µM
22. CCN(CC)CCN1C(=O)c2cccc3c(-c4ccc5c(c4)ncn5C4CCCCC4)ccc(c23)C1=O = 3.1 µM

// provenance: PubChem BioAssay (NCI)
